# koff annotations
Target: T1, mouse programmed cell death protein 1 Fc fusion protein (mPD-1-Fc), mPD-1 C60S (aa 25-167) (Mus musculus, UniProt Q02242, stabilised)
T1 construct: not cleaved; source: Expi293F, purified (Protein A, SEC; dimeric fraction); not shown: Fc (human), C-terminal, kept
Experiment: SPR; Carterra LSA; Fab from the ammonium sulfate precipitate of the culture supernatant immobilised on a NiHC200M chip; hPD-1 (1-1024 nM) or mPD-1-Fc (4-1024 nM) as analyte, fourfold dilution series, no regeneration; HBS-EP pH 7.4, 25 °C; medians over the spots of a construct, KD = koff/kon
Conditions: one partner purified
Field format: number, assumed s⁻¹, no unit text.

Here is how some binders turned out for koff.
{"BINDER": "toripalimab Fab L.V99I (Fab, V domains shown, as the heavy chain of Sm3; light chain of Sm3 with this change; numbers count from the chain's first residue; source: Brevibacillus, culture supernatant (ammonium sulfate precipitate); not shown: 6xHis, C-terminal, kept; 6xHN, C-terminal, kept) VH: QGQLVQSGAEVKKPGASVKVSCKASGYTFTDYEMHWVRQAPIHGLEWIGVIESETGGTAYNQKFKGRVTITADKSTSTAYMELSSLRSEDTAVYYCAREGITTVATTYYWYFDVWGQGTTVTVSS VL: DVVMTQSPLSLPVTLGQPASISCRSSQSIVHSNGNTYLEWYLQKPGQSPQLLIYKVSNRFSGVPDRFSGSGSGTDFTLKISRVEAEDVGVYYCFQGSHIPLTFGQGTKLEIK", "koff [s⁻¹]": 0.014}
{"BINDER": "toripalimab Fab L.P100N (Fab, V domains shown, as the heavy chain of Sm3; light chain of Sm3 with this change; numbers count from the chain's first residue; source: Brevibacillus, culture supernatant (ammonium sulfate precipitate); not shown: 6xHis, C-terminal, kept; 6xHN, C-terminal, kept) VH: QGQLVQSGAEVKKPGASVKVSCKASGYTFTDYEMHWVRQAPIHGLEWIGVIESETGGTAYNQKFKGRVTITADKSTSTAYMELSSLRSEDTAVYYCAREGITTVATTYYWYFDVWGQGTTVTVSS VL: DVVMTQSPLSLPVTLGQPASISCRSSQSIVHSNGNTYLEWYLQKPGQSPQLLIYKVSNRFSGVPDRFSGSGSGTDFTLKISRVEAEDVGVYYCFQGSHVNLTFGQGTKLEIK", "koff [s⁻¹]": 0.0003}
{"BINDER": "toripalimab Fab L.T102A (Fab, V domains shown, as the heavy chain of Sm3; light chain of Sm3 with this change; numbers count from the chain's first residue; source: Brevibacillus, culture supernatant (ammonium sulfate precipitate); not shown: 6xHis, C-terminal, kept; 6xHN, C-terminal, kept) VH: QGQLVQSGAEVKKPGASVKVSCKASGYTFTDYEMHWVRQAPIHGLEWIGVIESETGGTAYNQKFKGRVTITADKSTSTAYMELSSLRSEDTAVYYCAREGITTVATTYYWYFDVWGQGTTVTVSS VL: DVVMTQSPLSLPVTLGQPASISCRSSQSIVHSNGNTYLEWYLQKPGQSPQLLIYKVSNRFSGVPDRFSGSGSGTDFTLKISRVEAEDVGVYYCFQGSHVPLAFGQGTKLEIK", "koff [s⁻¹]": 0.00395}
{"BINDER": "toripalimab Fab L.L101F (Fab, V domains shown, as the heavy chain of Sm3; light chain of Sm3 with this change; numbers count from the chain's first residue; source: Brevibacillus, culture supernatant (ammonium sulfate precipitate); not shown: 6xHis, C-terminal, kept; 6xHN, C-terminal, kept) VH: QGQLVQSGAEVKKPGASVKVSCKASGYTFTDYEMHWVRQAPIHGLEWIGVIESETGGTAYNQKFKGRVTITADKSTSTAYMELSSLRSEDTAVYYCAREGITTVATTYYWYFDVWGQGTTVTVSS VL: DVVMTQSPLSLPVTLGQPASISCRSSQSIVHSNGNTYLEWYLQKPGQSPQLLIYKVSNRFSGVPDRFSGSGSGTDFTLKISRVEAEDVGVYYCFQGSHVPFTFGQGTKLEIK", "koff [s⁻¹]": 0.0615}

Let us examine a further case.
Record toripalimab Fab H.V104A (Fab, V domains shown, heavy chain of Sm3 with this change; numbers count from the chain's first residue; as the light chain of Sm3; source: Brevibacillus, culture supernatant (ammonium sulfate precipitate); not shown: 6xHis, C-terminal, kept; 6xHN, C-terminal, kept) VH: QGQLVQSGAEVKKPGASVKVSCKASGYTFTDYEMHWVRQAPIHGLEWIGVIESETGGTAYNQKFKGRVTITADKSTSTAYMELSSLRSEDTAVYYCAREGITTAATTYYWYFDVWGQGTTVTVSS VL: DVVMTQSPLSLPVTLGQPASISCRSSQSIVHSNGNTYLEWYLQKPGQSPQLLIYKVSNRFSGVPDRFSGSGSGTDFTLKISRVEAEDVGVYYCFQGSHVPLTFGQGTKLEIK . Reported koff: 0.00354
